# GIP EC50(pM) listing for each entry below
Biological target: T1, full-length human GIPR (GenBank NM_000164) with an N-terminal FLAG tag on HEK-293T cells (human), P48546
T1 chain: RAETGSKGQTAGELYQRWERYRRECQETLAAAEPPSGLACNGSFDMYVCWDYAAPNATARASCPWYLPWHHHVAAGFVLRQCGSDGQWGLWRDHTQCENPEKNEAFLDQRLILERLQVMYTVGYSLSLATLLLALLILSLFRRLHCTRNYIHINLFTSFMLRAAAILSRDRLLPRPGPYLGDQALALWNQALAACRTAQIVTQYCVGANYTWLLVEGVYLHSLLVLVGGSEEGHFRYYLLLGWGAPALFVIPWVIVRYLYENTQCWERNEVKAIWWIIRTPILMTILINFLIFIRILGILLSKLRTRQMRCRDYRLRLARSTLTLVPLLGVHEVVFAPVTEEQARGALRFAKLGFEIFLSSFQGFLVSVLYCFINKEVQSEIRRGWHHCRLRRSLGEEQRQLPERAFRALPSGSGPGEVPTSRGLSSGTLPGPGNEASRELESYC
Assay: cell-based or functional assay
Numbered stars: 1 amine (or outer) side, 2 acyl side, 3 side chain; on linkers, the order of the positions; unused ones are H or OH. Square brackets hold non-standard residues; d marks the D form. Primed or numbered codes have the meaning given here. Side chains are listed from the residue outwards. Ends that are not written are not given here. * marks the point of attachment. C18 diacid = O=C(O)CCCCCCCCCCCCCCCCC(=O)*; C16 diacid = O=C(O)CCCCCCCCCCCCCCC(=O)*; γGlu = O=C(O)[C@H](CCC(=O)[*:2])N[*:1]; Iva = CC[C@](C)(N)C(=O)O; PEG3′ = not defined here; Aib = CC(C)(N)C(=O)O
Respond numerically; units are pM and should not be typed.

- Binder: "Y[Aib]EGTFISDYSIALDR[Aib]HQ[Aib]NFVNW[Iva]LAQRPK([PEG3′-PEG3′-γGlu-C16 diacid])SGAPPPS (ends and bridges not checked) [Compound No. 488]"
  GIP EC50(pM): 0.75

Alright, here's another binder for you.
Fill in the blank: the reported GIP EC50(pM) of Y[Aib]EGTFISDYSIALDR[Aib]HQ[Aib]NFVNW[Iva]LAQRPSSGAPK([Gly-Gly-Gly-Gly-Gly-γGlu-C18 diacid])PS (ends and bridges not checked) [Compound No. 457] is ____. 0.82
